Test system: OVCAR-4 ovarian
PROTOCOL_SUMMARY: NCI-60 one-dose screen, 48 h (100 = growth as untreated, 0 = no growth, -100 = all killed)
REPORTED_CONDITIONS: 10 µM unless noted
Compounds without any hit were thinned out: in the full panel of roughly 83,000, 20% have a hit.

{"columns": ["MOLECULE", "QUANTITY_UNIT", "growth"],
 "data": [
  ["Nc1cccc(S(=O)(=O)c2cccc(N)c2)c1", "%", 102],
  ["CC(=O)N(C)c1ccc(Nc2cc(C)[nH]c3ccc4ncnc4c23)cc1", "%", 77.9],
  ["CCOC(=O)c1ccc(NC(=O)NC2=NCCS2)cc1", "%", 70.6],
  ["CCOC(=O)C(=CNc1ccccc1Cl)C(=O)OCC", "%", 91.7],
  ["CCNS(=O)(=O)c1ccc(C)cc1", "%", 103],
  ["CCCc1n(Cc2ccc3ccccc3n2)cc[n+]1Cc1ccc2ccccc2c1", "%", 5.87],
  ["CCOC(=O)c1sc2nc(-c3cc4ccccc4o3)cc(-c3ccc(Cl)cc3)c2c1N", "%", 101],
  ["COC(=O)c1ccc(NC(N)=NCCC(C)(C)c2ccc(C(F)(F)F)cc2)nc1", "%", 31.6],
  ["CCN(CC)CCC(CNc1ccnc2cc(Cl)ccc12)c1ccc(O)cc1 (stereo not drawn)", "%", 91.4],
  ["Cc1ccc2nc(CN(CCN(Cc3nc4ccc(C)cc4[nH]3)Cc3nc4ccc(C)cc4[nH]3)Cc3nc4ccc(C)cc4[nH]3)[nH]c2c1", "%", -99.2],
  ["COc1cccc(/C=N/N=C(N)N)c1", "%", 91.5],
  ["N#CC1=C(N)Oc2nc[nH]c(=O)c2C1c1cccs1 (stereo not drawn)", "%", 90.9],
  ["O=C(OCc1ccc2c(Cl)cc(Cl)c(O)c2n1)c1cc2ccccc2[nH]1", "%", -70.4],
  ["CC(C)CC(NC(=O)OCC1c2ccccc2-c2ccccc21)C(=O)O (stereo not drawn)", "%", 102],
  ["COC(=O)C1(C)COP(=O)(NC23CC4CC(CC(C4)C2)C3)OC1 (stereo not drawn)", "%", 97.7],
  ["Oc1[nH]c2ccccc2c1/C=c1/ccc2c(c1)N=C(c1ccc(C(F)(F)F)cc1)N=2", "%", 69.1],
  ["CC1=NC(c2ccc(Cl)cc2)C2=C(N1)/C(=C/c1ccc(Cl)cc1)CCC2 (stereo not drawn)", "%", 83.6],
  ["C=CCn1c(C)nc2cc(Nc3nc(N4CCOCC4)nc4nc[nH]c34)ccc21", "%", 88.4],
  ["C/C(=N\\NC(=S)N1CCCCC1)c1ccccn1", "%", -30.6],
  ["O=C(Nc1ccc(Cl)c(C(F)(F)F)c1)c1ccc(Nc2ccc(Cl)nn2)cc1", "%", 42.2],
  ["COc1cc(Cn2c(-c3ccccc3)cc3c2-c2oncc2CC3)cc(OC)c1OC", "%", 54.8],
  ["COc1ccc(-c2nc(-c3ccccc3OCc3ccccc3OC)nc(C)c2C(C)=O)cc1", "%", 94.9],
  ["Cc1cccc(C(=O)O)n1", "%", 101],
  ["O=C1/C(=C\\c2cccn2Cc2ccc(Cl)cc2)c2ccccc2N1c1c(Cl)cccc1Cl", "%", 40.2],
  ["COc1ccc2[nH]cc(C(c3ccc(Cl)cc3)N3CCCC3)c2c1 (stereo not drawn)", "%", 104],
  ["CC(C)N1CCN(c2ccncc2S(=O)(=O)N2CCN(C)CC2)CC1", "%", 96.1],
  ["CCN(CC)CCCC(C)Nc1cnc(C(=O)Nc2ccc(Cl)c3cccnc23)cn1 (stereo not drawn)", "%", 51.3],
  ["SCc1ccc(CS)cc1", "%", 101],
  ["CCc1oc2ccccc2c1C(=O)c1cc(I)c(O)c(I)c1", "%", 71],
  ["CCc1ccc(Nc2ncnc3c2cnn3-c2cccc(Br)c2)cc1", "%", 105],
  ["COc1ccc(C2=NN(C=O)C(c3ccc(OS(=O)(=O)c4ccc(C)cc4)c(OC)c3)C2)cc1 (stereo not drawn)", "%", 40.5],
  ["C=CCN(CCOC(=O)c1ccc([N+](=O)[O-])cc1)CCOC(=O)c1ccc([N+](=O)[O-])cc1", "%", 99.5],
  ["Cc1cc(C)c2c(n1)sc1c(Nc3ccc(OCc4ccccc4)cc3)ncnc12", "%", 107],
  ["COc1ccc(/C(=C\\c2cc(OC)c(OC)c(OC)c2)C(=O)N2CCNCC2)cc1", "%", 110],
  ["C=CCn1c(SCC(=O)Nc2ccc(/C(C)=N\\O)cc2)nnc1-c1cc(-c2ccccc2)nc2ccccc12", "%", 75],
  ["NNC(=O)Cc1ccccc1", "%", 97.4],
  ["COc1ccc2nc(NC(=O)/C(=C/c3cc(OC)c(OC)c(OC)c3)c3ccc(OC)c(OC)c3)sc2c1", "%", 93.4],
  ["COc1ccc(-c2nsc3c2NC(=O)CC3c2ccc3c(c2)OCO3)cc1 (stereo not drawn)", "%", 66.8],
  ["O=[N+]([O-])c1ccccc1CN1CCCCC1", "%", 114],
  ["CCOC(=O)c1ccccc1SC(C[N+](=O)[O-])c1ccccc1 (stereo not drawn)", "%", 89.1],
  ["O=S(=O)(NCC[C@@H]1C[C@H]1c1ccc2ccccc2c1)c1ccc(C(F)(F)F)cc1", "%", 79.6],
  ["C=CCn1c(C)nc2cc(Nc3nc(Nc4ccc5nc(C)n(CC=C)c5c4)nc4ccccc34)ccc21", "%", 99.5],
  ["Cn1nc(C(F)(F)F)cc1-c1c[nH]c(OCc2ccc(Cl)cc2)c(-c2ccc(Cl)c(C(F)(F)F)c2)c1=O", "%", 15.3]
]}
